Test system: pERK in PSN1 cells
Assay: Inhibition of KRas phosphorylation of ERK (Cisbio HTRF pERK assay)
Settings: Homo sapiens, PSN1, 3 h, read-out: Inhibition (HTRF IC50) of KRas-mediated Phosphorylation of ERK, PSN1
measure_name: IC50 (µM)

C#Cc1c(F)ccc2cc(O)cc(-c3ncc4c(N5CCCC6(CNC6=O)C5)nc(OC[C@@]56CCCN5C[C@H](F)C6)nc4c3F)c12 (stereo partly drawn) [Example 392] = 6.02

I. CCc1c(F)ccc2cc(O)cc(-c3ncc4c(N5CCCC6(C5)NC(=O)NC6=O)nc(OC[C@@]56CCCN5C[C@H](F)C6)nc4c3F)c12 (stereo partly drawn) [Example 196]
II. CCc1c(F)ccc2cc(O)cc(-c3ncc4c(N5CC6CC(O)C(C6)C5)nc(OC[C@@]56CCCN5C[C@H](F)C6)nc4c3F)c12 (stereo partly drawn) [Example 82]
## Input # argmax over IC50 for candidates I and II Please identify the chosen entry by its label.
## Output II

1. CCc1c(F)ccc2cc(O)cc(-c3ncc4c(N5CCCC(O)CC5)nc(OC[C@@]56CCCN5C[C@H](F)C6)nc4c3F)c12 (stereo in doubt) [Example 346]
2. CCc1c(F)ccc2cc(O)cc(-c3ncc4c(N5CCC[C@]6(C5)NC(=O)NC6=O)nc(OC[C@@]56CCCN5C[C@H](F)C6)nc4c3F)c12 [Example 307]
## Input Would you kindly point out which of 1 and 2 has the smaller IC50 figure? Please identify the chosen entry by its label.
## Output 2
(2: 0.106 µM, 1: 7.39 µM)
